The values you see were collected from PubChem BioAssay (NCI).

Can you tell me TGI for the items I'm about to list?
System: NCI-H522 lung
Protocol description: NCI tumour cell line growth inhibition, 48 h
Numbers only; they are read as µM.

Look up TGI for this compound: `Cc1cc(C)c2nc(Nc3nc(C)c(C)c(=O)[nH]3)nc(C)c2c1` 6.33

Look up TGI for this compound: `Oc1cccc(-c2cc(=S)ss2)c1` 20.4

Look up TGI for this compound: `O=C(CCCCCn1c2ccccc2c2c3c(c4c5ccccc5[nH]c4c21)C(=O)N(O)C3=O)N1CCOCC1` 3.14

###

System: NCI-H23 lung
Protocol description: NCI tumour cell line growth inhibition, 48 h
Where a SMILES comes first, the peptide text is derived from it. [ ]: non-standard residue; d: D form. The star is where a group is joined. ξ: configuration not given here. 4Abz = Nc1ccc(C(=O)O)cc1; ξL = CC(C)CC(N)C(=O)O; NHOH = ON*
Can you tell me TGI for the items I'm about to list?

Look up TGI for this molecule: `COC(=O)c1nc(N)[nH]c(=O)c1-c1ccc(Cl)cc1` > 100 µM

Look up TGI for this molecule: `COc1cccc(-n2cnc3c(N/N=C/c4ccncc4)ncnc32)c1` > 25 µM

Look up TGI for this molecule: `O=C(NC12CC3CC(CC(C3)C1)C2)n1cnc2cncnc21` > 100 µM

Look up TGI for this molecule: CC(C)CC(NC(=O)[C@@H]1CCCN1C(=O)CNC(=O)c1ccc(N)cc1)C(=O)N[C@H](C)C(=O)NO (stereo partly drawn) (H-[4Abz]GP[ξL][dA]-{NHOH}) > 100 µM

Look up TGI for this molecule: `O=C(CSCC(=O)N/N=C/c1ccc(F)cc1)N/N=C/c1ccc(F)cc1` > 100 µM

Look up TGI for this molecule: `NC(=O)c1ccc(N)nc1` > 400 µM

Look up TGI for this molecule: `O=C(Nc1ccc(Cl)cc1Cl)c1c/c(=N\O)c2ccc(O)cc2o1` > 100 µM

Look up TGI for this molecule: `COc1c2c(cc3oc(=O)ccc13)OC(C)(C)C=C2` 60.1 µM

###

Tested on: SNB-19 CNS
Protocol description: NCI tumour cell line growth inhibition, 48 h
Measured endpoint: TGI

// fetch SNB-19 CNS TGI for `CCCCC(=O)Nc1ccc2cc(C(=O)OC)c(=O)[nH]c2n1` > 100 µM

// fetch SNB-19 CNS TGI for `CC(=O)O/N=C1\C=Cc2c(no[n+]2[O-])C1=O` > 100 µM

// fetch SNB-19 CNS TGI for CC1=NN(C(=O)CC(=O)Nc2ccccc2)C(=O)C1N=Nc1ccc(S(N)(=O)=O)cc1 (stereo not drawn) > 100 µM

// fetch SNB-19 CNS TGI for CC(C)=CCNc1ncnc2c1ncn2C1OC(COP(=O)(O)O)C(O)C1O (stereo not drawn) > 100 µM

// fetch SNB-19 CNS TGI for `Cc1cc(CC(O)(C(F)(F)F)C(F)(F)F)cc(CC(O)(C(F)(F)F)C(F)(F)F)n1` > 100 µM

// fetch SNB-19 CNS TGI for `O=C1CCCc2ccc3c(c21)CC1(Cc2cc4c(cc2C1)CCCC4)C3` 91.7 µM

// fetch SNB-19 CNS TGI for `O=c1[nH]c(=O)n(COCCO)cc1-c1ccccc1` > 100 µM

// fetch SNB-19 CNS TGI for O=C(NCCc1ccccc1)C(c1csc2ccccc12)N(C(=O)CCl)c1ccc(-c2cnco2)cc1 (stereo not drawn) 3.16 µM
